Origin of the recorded values: ChEMBL document CHEMBL1151690

Test system: K562
Test: Antiproliferative activity against human K-562 cells after 72 hrs by MTT assay
Format: functional, cell-based
Conditions: K562, 72 h
observation.type: IC50 (µM)

// worked examples, IC50 included
input: IC50 lookup needed for COc1cc(/C=C/c2ccc(NC(=O)CCCCCNP(=O)(OC(C)C)OC(C)C)cc2)cc(OC)c1 , thanks.
output: 6.89

input: Same again, this time with COc1cc(/C=C/c2ccc(NC(=O)[C@@H]3CCCN3P(=O)(OC(C)C)OC(C)C)cc2)cc(OC)c1
output: 9.15

[1] COc1cc(/C=C/c2ccc(NC(=O)CCCCNP(=O)(OC(C)C)OC(C)C)cc2)cc(OC)c1
[2] CC(C)OP(=O)(NCCCCC(=O)Nc1ccc(/C=C/c2ccccc2)cc1)OC(C)C
input: Which item exceeds the other in IC50, 1 or 2 ? Reply briefly: the label of your chosen item.
output: 2

* * *

Experiment: Antiproliferative activity against human CNE2 cells after 72 hrs by MTT assay
Format: functional, cell-based
Settings: CNE-2, 72 h
observation.type: IC50 (µM)
Enter your answer as a number in µM; do not include the unit.

input: Which IC50 value is on record for COc1cc(/C=C/c2ccc(NC(=O)CCCNP(=O)(OC(C)C)OC(C)C)cc2)cc(OC)c1 ?
output: 15.2

input: Ok, now COc1cc(/C=C/c2ccc(NC(=O)CCNP(=O)(OC(C)C)OC(C)C)cc2)cc(OC)c1
output: 8.19

input: Repeat with COc1cc(/C=C/c2ccc(NC(=O)[C@H](Cc3ccccc3)NP(=O)(OC(C)C)OC(C)C)cc2)cc(OC)c1
output: 9.83

input: # repeat for CC(C)OP(=O)(N[C@@H](C)C(=O)Nc1ccc(/C=C/c2ccccc2)cc1)OC(C)C
output: 12.8

input: Please do the same for Oc1ccc(/C=C/c2cc(O)cc(O)c2)cc1 [RESVERATROL] as well.
output: 52.3

Further cases:
input: Which IC50 is reported for this compound? COc1cc(/C=C/c2ccc(NC(=O)[C@H](C)NP(=O)(OC(C)C)OC(C)C)cc2)cc(OC)c1
output: 11.7

input: Try this compound next: COc1cc(/C=C/c2ccc(NC(=O)CNP(=O)(OC(C)C)OC(C)C)cc2)cc(OC)c1
output: 7.12

input: // next record COc1cc(/C=C/c2ccc(NC(=O)CCCCNP(=O)(OC(C)C)OC(C)C)cc2)cc(OC)c1
output: 3.45

input: Cool, now CC(C)OP(=O)(NCCCCC(=O)Nc1ccc(/C=C/c2ccccc2)cc1)OC(C)C
output: 5.19

input: One more compound: CC(C)OP(=O)(NCCC(=O)Nc1ccc(/C=C/c2ccccc2)cc1)OC(C)C
output: 6.81

input: Follow-up item: CC(C)OP(=O)(N[C@@H](Cc1ccccc1)C(=O)Nc1ccc(/C=C/c2ccccc2)cc1)OC(C)C
output: 92.1

input: Try this compound next: CC(C)OP(=O)(N[C@H](C(=O)Nc1ccc(/C=C/c2ccccc2)cc1)C(C)C)OC(C)C
output: 128

input: Could you do the same for COc1cc(/C=C/c2ccc(NC(=O)CCCCCNP(=O)(OC(C)C)OC(C)C)cc2)cc(OC)c1 , please?
output: 5.06

* * *

Form field: pIC50 (one value per entry).
Test: Antiproliferative activity against human CNE2 cells after 72 hrs by MTT assay
Type: functional, cell-based
Settings: CNE-2, 72 h
Quick note: pIC50 values are minus log10 of concentrations in mol/L.

Some solved cases for reference:
input: Reported pIC50, compound CC(C)C[C@H](NP(=O)(OC(C)C)OC(C)C)C(=O)Nc1ccc(/C=C/c2ccccc2)cc1 : ____
output: 4.18

input: Again, but for COc1cc(/C=C/c2ccc(NC(=O)[C@@H]3CCCN3P(=O)(OC(C)C)OC(C)C)cc2)cc(OC)c1
output: 5.01

input: How about this compound: CC(C)OP(=O)(OC(C)C)N1CCC[C@H]1C(=O)Nc1ccc(/C=C/c2ccccc2)cc1
output: 4.91

input: Same question, Nc1ccc(/C=C/c2ccccc2)cc1 [(E)-4-STYRYLANILINE] this time
output: 4.01

input: And COc1cc(/C=C/c2ccc(NC(=O)[C@H](CC(C)C)NP(=O)(OC(C)C)OC(C)C)cc2)cc(OC)c1 ?
output: 4.84

New cases:
input: Give the measured pIC50 of COc1cc(/C=C/c2ccc(NC(=O)[C@@H](NP(=O)(OC(C)C)OC(C)C)C(C)C)cc2)cc(OC)c1 .
output: 4.11

input: Another: CC(C)OP(=O)(NCC(=O)Nc1ccc(/C=C/c2ccccc2)cc1)OC(C)C
output: 5.15

input: Input CC(C)OP(=O)(NCCCCCC(=O)Nc1ccc(/C=C/c2ccccc2)cc1)OC(C)C
output: 4.61

input: Moving on to CC(C)OP(=O)(NCCCC(=O)Nc1ccc(/C=C/c2ccccc2)cc1)OC(C)C
output: 5.19
